biological target: recombinant cynomolgus monkey CD3ε/δ heterodimer (cynomolgus monkey) (UniProt Q95LI5); assay: BLI (Octet), antigen on anti-Penta His sensor, antibody 50 nM
Sequence (Q95LI5 22-117, stated change not applied, chain 1 of 2): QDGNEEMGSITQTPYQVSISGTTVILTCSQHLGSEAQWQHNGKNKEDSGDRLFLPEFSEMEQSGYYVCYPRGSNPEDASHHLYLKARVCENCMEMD
Sequence (Q95LI8 22-105, stated change not applied, chain 2 of 2, further chain): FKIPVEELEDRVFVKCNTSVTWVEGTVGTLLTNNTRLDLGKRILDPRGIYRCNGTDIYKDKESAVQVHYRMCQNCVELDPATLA
recorded-endpoint: koff (s⁻¹)
Answer in s⁻¹, number only, no unit symbol.

// koff lookup, key: C15 (antibody, human IgG1, lambda, L234A L235A, V domains shown) VH: EVQLVESGGGLVQPGGSLKLSCAASGFTFNTYAMNWVRQASGKGLEWVGRIRSKYNNYATYYADSVKDRFTISRDDSQSTAYLQMNSLKTEDTAVYYCVRHGNFGNSYVSWFAYWGQGTLVTVSS VL: QAVVTQEPSLTVSPGGTVTLTCRSSTGAVTTSNYANWVQQKPGQAPRGLIGGTNKRAPWTPARFSGSLLGGKAALTLSGAQPEDEAEYYCALWYSNLWVFGGGTKLTVLG
0.000343

// koff lookup, key: A07 (antibody, human IgG1, lambda, L234A L235A, V domains shown) VH: EVQLVESGGGLVQPGGSLKLSCAASGFTFNTYAMNWVRQASGKGLEWVGRIRSKYNNYATYYADSVKDRFTISRDDSKNTAYLQMNSLKTEDTAVYYCVRHGNFGNSYVSWFAYWGQGTLVTVSS VL: QAVVTQEPSLTVSPGGTVTLTCRSSTGAVTTSNYANWFQQKPGQAPRGLIGGTNKRAPWTPARFSGSLLGGKAALTLSGAQPEDEAEYYCALWYSNLWVFGGGTKLTVLG
0.00315

New cases:
// koff lookup, key: F15 (antibody, human IgG1, lambda, L234A L235A, V domains shown) VH: EVQLVESGGGLVQPGGSLKLSCAASGFTFNTYAMNWVRQASGKGLEWVARIRSKYNNYATYYADSVKDRFTISRDDSKNTLYLQMNSLKTEDTAVYYCVRHGNFGNSYVSWFAYWGQGTLVTVSS VL: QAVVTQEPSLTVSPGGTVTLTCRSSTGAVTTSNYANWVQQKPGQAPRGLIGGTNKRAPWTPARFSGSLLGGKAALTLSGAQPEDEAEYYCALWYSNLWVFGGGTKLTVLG
0.000297
